- system: the molecule itself
- experimental.details: native MS; dimerization of apo proteins: 5 µM protein in 150 mM ammonium acetate pH 7.5, 0.5 mM DTT; monomer-dimer distribution quantified

{"protein": "G9a methyltransferase domain (aa residues 913-1193), K1162R (domain or fragment, human, UniProt Q96KQ7-1 913-1193, looked up, G9a (EHMT2), human, methyltransferase (SET) domain, aa residues 913-1193, patient variant; numbered on NP_006700.3; De novo patient variant made by site-directed mutagenesis; also called p.Lys1162Arg; c.3485A>G; source: E. coli BL21-CodonPlus (DE3)-RIPL, pET28a, purified (IMAC, TEV cleavage, SEC, second IMAC); not shown: His6, N-terminal, cleaved) NRAIRTEKIICRDVARGYENVPIPCVNGVDGEPCPEDYKYISENCETSTMNIDRNITHLQHCTCVDDCSSSNCLCGQLSIRCWYDKDGRLLQEFNKIEPPLIFECNQACSCWRNCKNRVVQSGIKVRLQLYRTAKMGWGVRALQTIPQGTFICEYVGELISDAEADVREDDSYLFDLDNKDGEVYCIDARYYGNISRFINHLCDPNIIPVRVFMLHQDLRFPRIAFFSSRDIRTGEELGFDYGDRFWDIRSKYFTCQCGSEKCKHSAEAIALEQSRLARLD", "stoichiometry N": 2}
